Task for the reader: assign each of the following molecules its reported refractive index.
experiment: refractive index (Na D-line) (dimensionless); conditions: 303 K; 101.3 kPa; Liquid; Standard Abbe refractometry
Answers are plain numbers.

{"molecule": "CCCCO [butan-1-ol]", "measureName": "refractive index", "readoutValue": 1.395}

Batch of 2 molecules: report refractive index for each.
1. CCCO [propan-1-ol]
2. COS(=O)(=O)[O-].Cn1cc[n+](C)c1 [1,3-dimethylimidazolium methylsulfate]

// result
1. 1.382
2. 1.481

Batch of 2 molecules: report refractive index for each.
1. CCCCCO [pentan-1-ol]
2. CCn1cc[n+](C)c1.COS(=O)(=O)[O-] [1-ethyl-3-methylimidazolium methylsulfate]

// result
1.407
1.479

###

Task for the reader: assign each of the following compounds its reported refractive index.
assay: refractive index (Na D-line) (dimensionless); settings: 313 K; 101.3 kPa; Liquid; Standard Abbe refractometry
Numbers only.

Example entries begin here.
{"compound": "CCCO", "readoutValue": 1.378}
{"compound": "CCn1cc[n+](C)c1.COS(=O)(=O)[O-] [1-ethyl-3-methylimidazolium methylsulfate]", "readoutValue": 1.476}
{"compound": "COS(=O)(=O)[O-].Cn1cc[n+](C)c1 [1,3-dimethylimidazolium methylsulfate]", "readoutValue": 1.479}
{"compound": "CCCCCO", "readoutValue": 1.404}

Next:
// query Requested read-out: refractive index. Entry: CCCCO
// result 1.389

###

Task for the reader: assign each of the following molecules its reported speed of sound.
details: 308 K; 101.3 kPa; Liquid; Frequency=3 MHz; Sing-around technique in a fixed-path interferometer
Answers are plain numbers, in m/s.

Example entries begin here.
{"molecule": "CCCCCO [pentan-1-ol]", "unitsSymbol": "m/s", "readoutValue": 1242}
{"molecule": "COS(=O)(=O)[O-].Cn1cc[n+](C)c1 [1,3-dimethylimidazolium methylsulfate]", "unitsSymbol": "m/s", "readoutValue": 1787}
{"molecule": "CCn1cc[n+](C)c1.COS(=O)(=O)[O-] [1-ethyl-3-methylimidazolium methylsulfate]", "unitsSymbol": "m/s", "readoutValue": 1739}
{"molecule": "CCCO [propan-1-ol]", "unitsSymbol": "m/s", "readoutValue": 1174}

// query Requested read-out: speed of sound. Entry: CCCCO [butan-1-ol]
// result 1206

###

Task for the reader: assign each of the following compounds its reported mass density.
details: 298 K; 101.3 kPa; Liquid; Vibrating tube method
Numbers only, in kg/m3.

{"compound": "CCCO", "unitsSymbol": "kg/m3", "mass density": 800}
{"compound": "COS(=O)(=O)[O-].Cn1cc[n+](C)c1 [1,3-dimethylimidazolium methylsulfate]", "unitsSymbol": "kg/m3", "mass density": 1329}

Batch of 3 compounds: report mass density for each.
1. CCn1cc[n+](C)c1.COS(=O)(=O)[O-] [1-ethyl-3-methylimidazolium methylsulfate]
2. CCCCO
3. CCCCCO

// result
[1292, 806, 811]

###

conditions: 308 K; 101.3 kPa; Liquid; Vibrating tube method
measureName: mass density (kg/m3)
Answers are plain numbers, in kg/m3.

{"compound": "CCCCCO [pentan-1-ol]", "mass density, kg/m3": 803}
{"compound": "CCCCO [butan-1-ol]", "mass density, kg/m3": 798}
{"compound": "CCCO [propan-1-ol]", "mass density, kg/m3": 792}
{"compound": "COS(=O)(=O)[O-].Cn1cc[n+](C)c1 [1,3-dimethylimidazolium methylsulfate]", "mass density, kg/m3": 1319}

Next:
// query Requested read-out: mass density. Entry: CCn1cc[n+](C)c1.COS(=O)(=O)[O-] [1-ethyl-3-methylimidazolium methylsulfate]
// result 1285

###

assay: refractive index (Na D-line) (dimensionless); conditions: 308 K; 101.3 kPa; Liquid; Standard Abbe refractometry
Numbers after ± are expanded uncertainties.
Task for the reader: assign each of the following compounds its reported refractive index.

Example entries begin here.
{"compound": "CCCCCO", "measureName": "refractive index", "readoutValue": "1.406 ± 0.01"}
{"compound": "CCn1cc[n+](C)c1.COS(=O)(=O)[O-] [1-ethyl-3-methylimidazolium methylsulfate]", "measureName": "refractive index", "readoutValue": "1.478 ± 0.01"}
{"compound": "CCCO", "measureName": "refractive index", "readoutValue": "1.38 ± 0.01"}
{"compound": "COS(=O)(=O)[O-].Cn1cc[n+](C)c1 [1,3-dimethylimidazolium methylsulfate]", "measureName": "refractive index", "readoutValue": "1.48 ± 0.01"}

Next:
// query Requested read-out: refractive index. Entry: CCCCO
// result 1.392 ± 0.01

###

Task for the reader: assign each of the following compounds its reported mass density.
conditions: 303 K; 101.3 kPa; Liquid; Vibrating tube method
One number for each entry, in kg/m3.

Example entries begin here.
{"compound": "CCCCCO", "measureName": "mass density", "readoutValue": 807}
{"compound": "CCn1cc[n+](C)c1.COS(=O)(=O)[O-] [1-ethyl-3-methylimidazolium methylsulfate]", "measureName": "mass density", "readoutValue": 1289}
{"compound": "CCCCO", "measureName": "mass density", "readoutValue": 802}
{"compound": "CCCO", "measureName": "mass density", "readoutValue": 796}

Next:
// query Requested read-out: mass density. Entry: COS(=O)(=O)[O-].Cn1cc[n+](C)c1 [1,3-dimethylimidazolium methylsulfate]
// result 1322

###

test: refractive index (Na D-line) (dimensionless); conditions: 298 K; 101.3 kPa; Liquid; Standard Abbe refractometry
± gives the expanded uncertainty stated by the source.
measureName: refractive index

Example entries begin here.
{"compound": "CCCO", "refractive index": "1.383 ± 0.01"}
{"compound": "CCCCCO", "refractive index": "1.408 ± 0.01"}
{"compound": "CCn1cc[n+](C)c1.COS(=O)(=O)[O-] [1-ethyl-3-methylimidazolium methylsulfate]", "refractive index": "1.48 ± 0.01"}
{"compound": "CCCCO", "refractive index": "1.397 ± 0.01"}

Next:
// query Requested read-out: refractive index. Entry: COS(=O)(=O)[O-].Cn1cc[n+](C)c1 [1,3-dimethylimidazolium methylsulfate]
// result 1.483 ± 0.01

###

conditions: 303 K; 101.3 kPa; Liquid; Frequency=3 MHz; Sing-around technique in a fixed-path interferometer
Task for the reader: assign each of the following molecules its reported speed of sound.
Give bare numbers, in m/s.

Example entries begin here.
{"molecule": "CCCO", "unitsSymbol": "m/s", "readoutValue": 1191}
{"molecule": "CCCCCO", "unitsSymbol": "m/s", "readoutValue": 1259}

Batch of 3 molecules: report speed of sound for each.
1. CCCCO
2. CCn1cc[n+](C)c1.COS(=O)(=O)[O-] [1-ethyl-3-methylimidazolium methylsulfate]
3. COS(=O)(=O)[O-].Cn1cc[n+](C)c1 [1,3-dimethylimidazolium methylsulfate]

// result
1: 1224; 2: 1750; 3: 1799

###

conditions: 313 K; 101.3 kPa; Liquid; Frequency=3 MHz; Sing-around technique in a fixed-path interferometer
Task for the reader: assign each of the following molecules its reported speed of sound.
Numbers only, in m/s.

Example entries begin here.
{"molecule": "CCn1cc[n+](C)c1.COS(=O)(=O)[O-] [1-ethyl-3-methylimidazolium methylsulfate]", "speed of sound, m/s": 1727}
{"molecule": "CCCCO [butan-1-ol]", "speed of sound, m/s": 1190}
{"molecule": "COS(=O)(=O)[O-].Cn1cc[n+](C)c1 [1,3-dimethylimidazolium methylsulfate]", "speed of sound, m/s": 1775}
{"molecule": "CCCO [propan-1-ol]", "speed of sound, m/s": 1158}

Next:
// query Requested read-out: speed of sound. Entry: CCCCCO [pentan-1-ol]
// result 1226

###

Task for the reader: assign each of the following compounds its reported speed of sound.
conditions: 298 K; 101.3 kPa; Liquid; Frequency=3 MHz; Sing-around technique in a fixed-path interferometer
Numbers only, in m/s.

{"compound": "COS(=O)(=O)[O-].Cn1cc[n+](C)c1 [1,3-dimethylimidazolium methylsulfate]", "measureName": "speed of sound", "unitsSymbol": "m/s", "readoutValue": 1811}
{"compound": "CCCCCO", "measureName": "speed of sound", "unitsSymbol": "m/s", "readoutValue": 1276}
{"compound": "CCCCO", "measureName": "speed of sound", "unitsSymbol": "m/s", "readoutValue": 1240}
{"compound": "CCn1cc[n+](C)c1.COS(=O)(=O)[O-] [1-ethyl-3-methylimidazolium methylsulfate]", "measureName": "speed of sound", "unitsSymbol": "m/s", "readoutValue": 1762}

Next:
// query Requested read-out: speed of sound. Entry: CCCO
// result 1208

Data origin, for the record: the NIST ThermoML archive (doi:10.1016/j.jct.2017.02.022)
